# Assay Summary: Bidirectional transport across Caco-2 cell monolayer
# Assay type: in vitro ADME, human
# Condition Description: human, pH 7.4; Caco-2, 25 µM RA, 20 min, without verapamil
Value Kind: Papp B→A at 20 min, 25 µM (×10⁻⁶ cm/s)
# output: bare number, implied unit ×10⁻⁶ cm/s

Which value of Papp B→A at 20 min, 25 µM has been reported for C[C@@H]1CC[C@]2(C(=O)O)CC[C@]3(C)C(=CC[C@@H]4[C@@]5(C)CC[C@H](O)[C@@](C)(CO)[C@@H]5CC[C@]43C)[C@@H]2[C@]1(C)O in the records?
5.45

====

Provide the recorded Papp B→A at 20 min for the entries that follow.
# Assay Summary: Bidirectional transport across MDCKII-Mock cell monolayers
# Assay type: in vitro ADME, canine
# Condition Description: dog, MDCK, pH 7.4, with verapamil 50 µM; MDCKII-Mock, 20 min, + 50 µM verapamil
# Protocol: The qualified monolayers were used for transport studies. […] Each experiment was carried out in triplicate.
# output: bare number, implied unit ×10⁻⁶ cm/s

Which value of Papp B→A at 20 min has been reported for COC(=O)c1ccccc1-c1c2ccc(=N)cc-2oc2cc(N)ccc12 in the records?
0.538

Cool, now C[C@@H]1CC[C@]2(C(=O)O)CC[C@]3(C)C(=CC[C@@H]4[C@@]5(C)CC[C@H](O)[C@@](C)(CO)[C@@H]5CC[C@]43C)[C@@H]2[C@]1(C)O
6.23

====

# Assay Summary: In vivo pharmacokinetic study of oral rotundic acid with or without verapamil pre-treatment
# Design: species or system Sprague–Dawley rats
# Condition Description: male, Sprague-Dawley, rat, plasma, po, 10 mg/kg, rats, RA 10 mg/kg oral, control (vehicle)
Value Kind: Cmax
The reply should consist of the numeric value with the unit placed after it.

Which value of Cmax has been reported for C[C@@H]1CC[C@]2(C(=O)O)CC[C@]3(C)C(=CC[C@@H]4[C@@]5(C)CC[C@H](O)[C@@](C)(CO)[C@@H]5CC[C@]43C)[C@@H]2[C@]1(C)O [RA, Rotundic acid] in the records?
108 ng/mL

====

# Assay Summary: Bidirectional transport across Caco-2 cell monolayer
# Type: in vitro ADME, human
# Condition Description: human, pH 7.4; Caco-2, 25 µM RA, 60 min, without verapamil
Value Kind: Papp A→B at 60 min, 25 µM (×10⁻⁶ cm/s)
# output: bare number, implied unit ×10⁻⁶ cm/s

Which value of Papp A→B at 60 min, 25 µM has been reported for C[C@@H]1CC[C@]2(C(=O)O)CC[C@]3(C)C(=CC[C@@H]4[C@@]5(C)CC[C@H](O)[C@@](C)(CO)[C@@H]5CC[C@]43C)[C@@H]2[C@]1(C)O in the records?
2.84

====

# Assay Summary: Bidirectional transport across Caco-2 cell monolayer
# Format: in vitro ADME, human
# Condition Description: human, pH 7.4; Caco-2, 25 µM RA, 10 min, without verapamil
Value Kind: Papp B→A at 10 min, 25 µM (×10⁻⁶ cm/s)
# output: bare number, implied unit ×10⁻⁶ cm/s

Which value of Papp B→A at 10 min, 25 µM has been reported for C[C@@H]1CC[C@]2(C(=O)O)CC[C@]3(C)C(=CC[C@@H]4[C@@]5(C)CC[C@H](O)[C@@](C)(CO)[C@@H]5CC[C@]43C)[C@@H]2[C@]1(C)O in the records?
3.25
